Where do the numbers come from? From patent US20200270325A1.

# study_target: human Glucagon receptor (GCGR) (human, UniProt P47871 26-477)
# Sequence (P47871 26-477): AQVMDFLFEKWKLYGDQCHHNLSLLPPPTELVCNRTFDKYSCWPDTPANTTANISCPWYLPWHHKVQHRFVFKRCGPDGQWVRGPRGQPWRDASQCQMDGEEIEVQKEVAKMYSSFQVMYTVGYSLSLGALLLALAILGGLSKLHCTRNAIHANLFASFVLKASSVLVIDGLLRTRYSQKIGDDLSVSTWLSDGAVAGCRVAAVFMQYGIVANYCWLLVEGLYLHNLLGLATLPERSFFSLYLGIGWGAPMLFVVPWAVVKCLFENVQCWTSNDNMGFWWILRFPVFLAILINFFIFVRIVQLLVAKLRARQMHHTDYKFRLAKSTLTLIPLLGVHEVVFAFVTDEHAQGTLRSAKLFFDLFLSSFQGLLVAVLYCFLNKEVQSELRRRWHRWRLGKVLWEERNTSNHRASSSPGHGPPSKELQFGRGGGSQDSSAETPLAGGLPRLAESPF
# assay_remarks: cell-based or functional assay
Numbered stars: 1 amine (or outer) side, 2 acyl side, 3 side chain; on linkers, the order of the positions; unused ones are H or OH. Square brackets hold non-standard residues; d marks the D form. Side chains are listed from the residue outwards. Ends that are not written are not given here. * marks the point of attachment. Phe(4-CH2NH2) = NCc1ccc(C[C@H](N)C(=O)O)cc1; C16 diacid = O=C(O)CCCCCCCCCCCCCCC(=O)*; γGlu = O=C(O)[C@H](CCC(=O)[*:2])N[*:1]; AEEA = NCCOCCOCC(=O)O; Aib = CC(C)(N)C(=O)O
# label = y if GCGR EC50 human >= 0.6 nM else n

- binder: "H[Aib]QGTFTSDYSKYLDARAAQ[Phe(4-CH2NH2)]([AEEA-AEEA-γGlu-C20‑OH])FVQWLLDT-NH2 [TP585]"
  category: "y"
- binder: "H[Aib]QGTFTSDYSKYLD[Aib]RAA[Phe(4-CH2NH2)]([AEEA-AEEA-γGlu-C16 diacid])DFVQWLLATK-{γGlu-NH2} [TP663]"
  category: "n"
- binder: "H[Aib]QGTFTSD[Phe(4-CH2NH2)]([AEEA-AEEA-γGlu-C20‑OH])SKYLD[Aib]RAAQDFVQWLLATK-{γGlu-NH2} [TP581]"
  category: "y"
